- TARGET OF ASSAY: Human DAO (Homo sapiens, UniProt P19801)
- Construct: Prof; Boehm, Department of Clinical Pharmacology, Medical University, Vienna (gift)
- Sequence (P19801 20-751): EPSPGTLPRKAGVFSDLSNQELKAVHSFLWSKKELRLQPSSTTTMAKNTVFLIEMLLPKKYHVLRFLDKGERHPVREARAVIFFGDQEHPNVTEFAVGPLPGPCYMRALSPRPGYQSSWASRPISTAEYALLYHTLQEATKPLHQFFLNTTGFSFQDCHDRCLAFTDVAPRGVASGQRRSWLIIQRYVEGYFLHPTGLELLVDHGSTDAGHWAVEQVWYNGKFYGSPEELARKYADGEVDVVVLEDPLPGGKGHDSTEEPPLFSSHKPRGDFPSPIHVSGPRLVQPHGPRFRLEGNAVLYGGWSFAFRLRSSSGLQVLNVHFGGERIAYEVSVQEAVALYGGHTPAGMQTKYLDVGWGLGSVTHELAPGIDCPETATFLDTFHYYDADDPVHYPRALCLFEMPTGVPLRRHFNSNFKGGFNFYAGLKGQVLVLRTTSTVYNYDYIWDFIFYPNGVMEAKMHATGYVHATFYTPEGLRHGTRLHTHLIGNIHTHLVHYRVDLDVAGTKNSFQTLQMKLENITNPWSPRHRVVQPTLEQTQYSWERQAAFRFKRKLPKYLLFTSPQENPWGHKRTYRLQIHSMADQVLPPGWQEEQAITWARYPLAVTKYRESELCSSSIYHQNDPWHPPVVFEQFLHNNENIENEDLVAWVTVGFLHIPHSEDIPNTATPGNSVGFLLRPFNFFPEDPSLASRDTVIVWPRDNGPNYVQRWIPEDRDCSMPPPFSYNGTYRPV
- PROTOCOL: Inhibition of human recombinant DAO
- CONDITION: 2 hours incubation; substrate putrescine 200 μM
pIC50: −log10 of the molar value.
MEASURED PARAMETER: pIC50

Ask: So what's the measured pIC50 for this one? `NC/C(=C\F)CS(=O)(=O)c1ccccc1`
Reply: < 4.00

###

- TARGET OF ASSAY: Bovine LOX (Bos taurus, UniProt P33072)
- Sequence (P33072 170-418): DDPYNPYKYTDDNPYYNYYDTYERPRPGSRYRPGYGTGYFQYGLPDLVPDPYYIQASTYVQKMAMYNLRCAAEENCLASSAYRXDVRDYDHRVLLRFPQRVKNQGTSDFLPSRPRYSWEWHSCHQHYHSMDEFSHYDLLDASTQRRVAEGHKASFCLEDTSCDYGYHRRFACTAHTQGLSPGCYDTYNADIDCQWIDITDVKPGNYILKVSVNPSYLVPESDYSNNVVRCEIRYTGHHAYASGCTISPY
- PROTOCOL: LOX inhibition, hydrogen peroxide Amplex Red oxidation assay
- Assay type: biochemical
- CONDITION: 2 h incubation with enzyme at 37 °C
pIC50: −log10 of the molar value.
Each item that follows carries a reported pIC50.

N#Cc1cccc(S(=O)(=O)C/C(=C/F)CN)c1
> 5.70

Ask: So what's the measured pIC50 for this one? `NC/C(=C\F)CS(=O)(=O)c1cccc2cccnc12`
Reply: > 5.00

Ask: So what's the measured pIC50 for this one? `Cc1ncc(-c2cccc(S(=O)(=O)C/C(=C/F)CN)c2)s1`
Reply: > 5.70

Ask: So what's the measured pIC50 for this one? `N#Cc1ccccc1S(=O)(=O)C/C(=C/F)CN`
Reply: > 5.30

Ask: So what's the measured pIC50 for this one? `NC/C(=C\F)CS(=O)(=O)c1ccc2c(c1)OCCO2`
Reply: > 5.70

Ask: So what's the measured pIC50 for this one? `NC/C(=C/F)CS(=O)(=O)c1ccccc1`
Reply: > 5.70

Ask: So what's the measured pIC50 for this one? `NC/C(=C\F)CS(=O)(=O)c1cccc(Cl)c1`
Reply: > 5.70

Ask: So what's the measured pIC50 for this one? `COc1cccc(S(=O)(=O)C/C(=C/F)CN)c1`
Reply: > 5.70

Ask: So what's the measured pIC50 for this one? `NC/C(=C\F)CS(=O)(=O)c1cccc(CN2CCCCCC2=O)c1`
Reply: > 5.00

Ask: So what's the measured pIC50 for this one? `NC/C(=C\F)CS(=O)(=O)c1cccc(-c2nccs2)c1`
Reply: > 5.70
